Target: Neuropeptide Y receptor type 1 (Homo sapiens, UniProt P25929)
Sequence (P25929 whole entry): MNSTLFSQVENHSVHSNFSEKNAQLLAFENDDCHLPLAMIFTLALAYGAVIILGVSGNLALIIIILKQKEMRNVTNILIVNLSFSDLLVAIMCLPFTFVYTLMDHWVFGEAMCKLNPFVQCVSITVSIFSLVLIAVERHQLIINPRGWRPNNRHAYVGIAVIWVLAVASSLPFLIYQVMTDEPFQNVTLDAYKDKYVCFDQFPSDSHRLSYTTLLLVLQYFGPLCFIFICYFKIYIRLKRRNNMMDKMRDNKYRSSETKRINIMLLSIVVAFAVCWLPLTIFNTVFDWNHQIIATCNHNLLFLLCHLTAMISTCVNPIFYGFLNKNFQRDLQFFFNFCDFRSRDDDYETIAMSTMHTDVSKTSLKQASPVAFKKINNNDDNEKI
Test: Binding affinity to neuropeptide Y1 receptor in human MCF7 cells
Type: cell-based
measureName: Ki

Looking up CCC(=O)/N=C(/N)NCCC[C@@H](NC(=O)C(c1ccccc1)c1ccccc1)C(=O)NCc1ccc(O)cc1 , I see its Ki listed as 1.2 nM

---

Target: Neuropeptide Y receptor type 1 (Homo sapiens)
Test: Binding affinity to neuropeptide Y1 receptor in human SK-N-MC cells
Assay type: cell-based
measureName: pKd
// scale note: pKd = -log10(conc_M); give the bare number

Record for [3H]CC([3H])C(=O)/N=C(/N)NCCC[C@@H](NC(=O)C(c1ccccc1)c1ccccc1)C(=O)NCc1ccc(O)cc1 (stereo partly specified) under target or system Neuropeptide Y receptor type 1 (Homo sapiens): pKd reported as 8.92
